Biological target: AMPK
Assay: AMPK activation, enzyme-linked immunosorbent assay
Type: biochemical
Conditions: compounds of Table 3 (Table 8)
pEC50: −log10 of the molar value.
Property: pEC50

These solved cases illustrate the format of a correct answer.
{"Molecule": "O=C(c1nc2ccc(OC3CCN(c4ccc(C(F)(F)F)cc4)CC3)cc2o1)N1CC2CC1CN2Cc1ccncc1 (centres unmarked)", "Result": "6.00 to 7.00"}
{"Molecule": "N#Cc1ccc(CN2CCc3ccc(C(=O)NC4CCN(Cc5cccnc5)CC4)cc3C2)cc1", "Result": "> 7.00"}
{"Molecule": "O=C(NC1CCN(Cc2ccncc2)CC1)c1cn2ccc(OC3CCN(c4ccc(C(F)(F)F)cc4)CC3)cc2n1", "Result": "> 7.00"}
{"Molecule": "N#Cc1ccc(CN2CCC(NC(=O)c3ccc(C(=O)NC4CCN(Cc5ccccc5)CC4)cc3)CC2)cc1", "Result": "4.00 to 5.00"}
{"Molecule": "CC(C)(C)OC(=O)N1CCC(NC(=O)c2cnc(OC3CCN(c4ccc(C(F)(F)F)cc4)CC3)cn2)CC1", "Result": "5.00 to 6.00"}
{"Molecule": "O=C(NC1CCN(Cc2ccc(C(F)(F)F)cc2)CC1)c1ccc2c(c1)CN(Cc1ccc(F)cc1)CC2", "Result": "6.00 to 7.00"}

(Q) Tell me measured pEC50 for O=C(NC1CCNCC1)c1nc2ccc(OC3CCN(c4ccc(C(F)(F)F)cc4)CC3)cc2o1 please.
(A) 4.00 to 5.00

(Q) Tell me measured pEC50 for N#Cc1ccc(CN2CCC(NC(=O)c3cn4ccc(OC5CCN(c6ccc(C(F)(F)F)cc6)CC5)cc4n3)CC2)cc1 please.
(A) > 7.00

---

Target: AMPK
Assay: AMPK activation, enzyme-linked immunosorbent assay
Type: biochemical
Conditions: compounds of Table 1 (Table 6)
pEC50: −log10 of the molar value.
Property: pEC50

These solved cases illustrate the format of a correct answer.
{"Compound": "O=C(c1ccc(F)cc1)N1CCC(NS(=O)(=O)c2ccc(OC3CCN(c4ccc(C(F)(F)F)cc4)CC3)nc2)CC1 [1-60]", "pEC50": "< 5.00"}
{"Compound": "O=C(NC1CCN(Cc2ccc(F)cc2)CC1)c1cc2ccc(OC3CCN(c4ccc(OC(F)(F)F)cc4)CC3)cc2o1 [1-94]", "pEC50": "> 7.00"}
{"Compound": "N#Cc1ccc(CN2CCC(NC(=O)c3cncc(OC4CCN(c5ccc(C(F)(F)F)cc5)CC4)c3)CC2)cc1 [1-17]", "pEC50": "> 7.00"}
{"Compound": "N#Cc1ccc(CN2CCC(NC(=O)c3ccnc(OC4CCN(c5ccc(C(F)(F)F)cc5)CC4)c3)CC2)cc1 [1-21]", "pEC50": "6.30 to 7.00"}
{"Compound": "N#Cc1ccc(CN2CCC(NS(=O)(=O)c3ccc(OC4CCN(c5ccc(C(F)(F)F)cc5)CC4)nc3)CC2)cc1 [1-56]", "pEC50": "5.00 to 5.30"}

(Q) Tell me measured pEC50 for N#Cc1ccc(CN2CCC(NC(=O)c3cc4ccc(OC5CCN(c6ccc(OC(F)(F)F)cc6)CC5)cc4o3)CC2)cc1 [1-89] please.
(A) > 7.00

(Q) Tell me measured pEC50 for O=C(NCCCNCc1ccncc1)c1ccc(OC2CCN(c3ccc(C(F)(F)F)cc3)CC2)cn1 [1-50] please.
(A) 5.30 to 6.00

(Q) Tell me measured pEC50 for N#Cc1ccccc1CN1CCC(NC(=O)c2cc3ccc(OC4CCN(c5ccc(C(F)(F)F)cc5)CC4)cc3o2)CC1 [1-98] please.
(A) > 7.00

(Q) Tell me measured pEC50 for O=C(N[C@H]1CCNC1)c1cc2cc(OC3CCN(Cc4ccc(Cl)cc4)CC3)ccc2o1 [1-128] please.
(A) < 5.00

(Q) Tell me measured pEC50 for O=C(NC1CCN(Cc2cccnc2)CC1)c1sc2cc(OC3CCN(c4ccc(C(F)(F)F)cc4)CC3)ccc2c1Cl [1-152] please.
(A) > 7.00

---

Molecular target: AMPK
Test: AMPK activation, enzyme-linked immunosorbent assay
Type: biochemical
Conditions: compounds of Table 1 (Table 6)
EC50 for assorted compounds

{"Item smiles": "O=C(NC1CCN(Cc2cncnc2)CC1)c1ccc(OC2CCN(c3ccc(C(F)(F)F)cc3)CC2)cn1", "Property": "EC50", "Result": "100 to 500 nM"}
{"Item smiles": "N#Cc1ccc(CN2CCC(NC(=O)c3cc4ccc(OC5CCN(c6ccc(C(F)(F)F)cc6)CC5)cc4s3)CC2)cc1", "Property": "EC50", "Result": "< 100 nM"}
{"Item smiles": "O=C(NC1CCNCC1)c1cc2cc(OC3CCN(c4ccc(C(F)(F)F)cc4)CC3)ccc2s1", "Property": "EC50", "Result": "1000 to 5000 nM"}

(Q) Lab note: record EC50 of O=C(NC1CCNCC1)c1ccnc(OC2CCN(c3ccc(C(F)(F)F)cc3)CC2)c1 tested on AMPK.
(A) 1000 to 5000 nM
